Data provenance is patent US5445941A.

Here the recorded reporter gene expression is given for each entry.
tested on: TGFβ-3 promoter; experiment: Comparative induction of reporter gene from TGFβ-3 promoter (pB-301, pRSVER, MG63) by raloxifene and related compounds; type: cell-based, human; conditions: 10^-9 M; 0 M 0.61
Structures can show the parent of a compound that is named as a salt.

{"COMPOUND": "CC(C)(C)C(=O)Oc1ccc(-c2sc3cc(OC(=O)C(C)(C)C)ccc3c2C(=O)c2ccc(OCCN3CCCCC3)cc2)cc1 [LY177366, hydrochloride]", "reporter gene expression": 1.1}
{"COMPOUND": "O=C(c1ccc(O)cc1)c1sc2ccccc2c1-c1ccccc1", "reporter gene expression": 0.6}
{"COMPOUND": "O=C(c1ccc(OCCN2CCCC2)cc1)c1c(-c2ccc(O)cc2)sc2ccccc12", "reporter gene expression": 0.7}
{"COMPOUND": "O=C(c1ccc(O)cc1)c1sc2ccc(O)cc2c1-c1ccccc1", "reporter gene expression": 0.6}
{"COMPOUND": "O=C(c1ccc(OCCN2CCCCCC2)cc1)c1c(-c2ccc(O)cc2)sc2cc(O)ccc12", "reporter gene expression": 0.8}
{"COMPOUND": "COc1ccc(C2=C(C(=O)c3ccc(OCCN4CCCC4)cc3)c3ccccc3CC2)cc1", "reporter gene expression": 0.7}

----------
tested on: TGFβ-3 promoter; assay: Comparative induction of reporter gene from TGFβ-3 promoter (pB-301, pRSVER, MG63) by raloxifene and related compounds; format: cell-based, human; conditions: 10^-8 M; 0 M 0.61
Counter-ions that a name gives are not always drawn.
Label rule, in plain words: reporter gene expression of 0.7 and up is 1, under 0.7 is -1.

{"MOLECULE": "CC(C)(C)C(=O)Oc1ccc(-c2sc3cc(OC(=O)C(C)(C)C)ccc3c2C(=O)c2ccc(OCCN3CCCCC3)cc2)cc1 [LY177366, hydrochloride]", "CATEGORY LABEL": 1}
{"MOLECULE": "O=C(c1ccc(O)cc1)c1sc2ccccc2c1-c1ccccc1", "CATEGORY LABEL": -1}
{"MOLECULE": "O=C(c1ccc(O)cc1)c1sc2ccc(O)cc2c1-c1ccccc1", "CATEGORY LABEL": -1}
{"MOLECULE": "O=C(c1ccc(OCCN2CCCCCC2)cc1)c1c(-c2ccc(O)cc2)sc2cc(O)ccc12", "CATEGORY LABEL": 1}
